Data origin, for the record: patent US20240116985A1

- target_desc: full-length beta-Catenin (Uniprot ID P35222) (Homo sapiens, UniProt P35222)
- Construct: 10 nM full-length beta-Catenin (Uniprot ID P35222)
- Sequence (P35222 whole entry): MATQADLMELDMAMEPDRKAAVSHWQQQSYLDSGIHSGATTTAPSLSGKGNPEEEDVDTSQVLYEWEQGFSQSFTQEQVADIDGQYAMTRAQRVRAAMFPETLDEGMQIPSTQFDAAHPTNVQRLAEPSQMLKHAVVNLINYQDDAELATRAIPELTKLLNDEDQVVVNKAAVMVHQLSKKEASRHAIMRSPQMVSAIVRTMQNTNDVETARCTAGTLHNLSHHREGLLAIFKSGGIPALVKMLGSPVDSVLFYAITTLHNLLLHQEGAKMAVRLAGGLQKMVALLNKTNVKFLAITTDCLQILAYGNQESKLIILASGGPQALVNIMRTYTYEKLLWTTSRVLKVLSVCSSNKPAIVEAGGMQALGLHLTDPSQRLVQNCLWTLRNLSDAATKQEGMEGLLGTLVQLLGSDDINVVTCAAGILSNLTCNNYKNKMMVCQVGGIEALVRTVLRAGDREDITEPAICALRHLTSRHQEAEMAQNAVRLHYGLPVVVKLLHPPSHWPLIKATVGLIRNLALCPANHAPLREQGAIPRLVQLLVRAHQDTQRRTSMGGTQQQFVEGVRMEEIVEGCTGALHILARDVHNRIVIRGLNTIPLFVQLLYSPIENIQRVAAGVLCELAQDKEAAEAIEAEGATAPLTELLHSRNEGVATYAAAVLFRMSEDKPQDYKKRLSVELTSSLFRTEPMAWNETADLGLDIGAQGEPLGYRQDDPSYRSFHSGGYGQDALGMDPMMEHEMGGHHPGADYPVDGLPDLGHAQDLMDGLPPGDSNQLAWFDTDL
- test_description: Fluorescence polarization IC50 (beta-catenin / 5FAM-TCF4 10-53 competition)
- Format: binding
- measurement_parameters: fluorescence polarization; read-out: beta-Catenin FP IC50
attribute_measured: pIC50
Lab note: report pIC50 as minus log10 of the concentration in molar units, number only.

| compound | attribute_measured | result_value |
| --- | --- | --- |
| CC(=O)N1CCC[C@]12CC=CCCCC1(CCCC=CCCCOC(=O)N3CC[C@@](C(=O)N[C@@H](Cc4ccsc4)C(=O)N[C@@H](Cc4csc5ccccc45)C(=O)N[C@@H](C)C(N)=O)(C3)NC(=O)[C@H](CC(C)C)NC(=O)[C@H](Cc3ccccc3)NC(=O)[C@H](C)NC(=O)[C@H](CCCCNC(C)C)NC(=O)[C@H](Cc3cccc(C(=O)O)c3)NC(=O)[C@H](CC(=O)O)NC1=O)NC(=O)[C@H](CC(C)(C)C)NC(=O)[C@H](CC(=O)O)NC2=O (stereo partly drawn) [I-1915] | pIC50 | 7.96 |
| CC(=O)N1CCC[C@]12CC=CCCCC1(CCCC=CCCCOC(=O)N3CC[C@@](C(=O)N[C@@H](Cc4ccsc4)C(=O)N[C@@H](Cc4csc5ccccc45)C(=O)N[C@@H](CCC(N)=O)C(N)=O)(C3)NC(=O)[C@H](CC(N)=O)NC(=O)[C@H](Cc3ccccc3)NC(=O)[C@H](C)NC(=O)[C@H](C)NC(=O)[C@H](CCCNC(=N)N)NC(=O)[C@H](CC(=O)O)NC1=O)NC(=O)[C@H](CC(C)(C)C)NC(=O)[C@H](CC(=O)O)NC2=O (stereo partly drawn) [I-1891] | pIC50 | 7.40 |

Next up:
Using the record for CC(=O)N1CCC[C@]12CC=CCCCC1(CCCC=CCCCOC(=O)N3CC[C@@](C(=O)N[C@@H](Cc4ccccc4)C(=O)N[C@@H](Cc4csc5ccccc45)C(=O)N[C@@H](CCC(N)=O)C(N)=O)(C3)NC(=O)[C@H](CC(N)=O)NC(=O)[C@H](Cc3ccccc3)NC(=O)[C@H](C)NC(=O)[C@H](CCCCNC(C)C)NC(=O)[C@H](CCC(N)=O)NC(=O)[C@H](CC(=O)O)NC1=O)NC(=O)[C@H](CC1CCCCC1)NC(=O)[C@H](CC(N)=O)NC2=O (stereo partly drawn) [I-2113] , report its pIC50.
6.79

###

- test_description: Solubility in PBS
- Format: physicochemical
- measurement_parameters: Solubility (uM)
This listing pairs compounds with measured Solubility.
Dear colleague, please return just the value in µM, with no unit written.

| compound | attribute_measured | result_value |
| --- | --- | --- |
| CC(=O)N1CCC[C@]12CC=CCCCC1(CCCC=CCCCOC(=O)N3CC[C@@](C(=O)N[C@@H](Cc4ccccc4F)C(=O)N[C@@H](Cc4csc5ccccc45)C(=O)N[C@@H](CCC(N)=O)C(N)=O)(C3)NC(=O)[C@H]([C@@H](C)O)NC(=O)[C@H](Cc3ccccc3)NC(=O)[C@H](C)NC(=O)[C@H](C)NC(=O)[C@H](CC(=O)O)NC(=O)[C@H](CC(=O)O)NC1=O)NC(=O)[C@H](CC(C)(C)C)NC(=O)[C@H](CC(=O)O)NC2=O (stereo partly drawn) [I-1021] | Solubility | 44 |
| CC[C@H](C)[C@@H]1NC(=O)[C@H](CC(=O)O)NC(=O)[C@]2(CC=CCCCC3(CCCC=CCCCCCC[C@@](C)(C(=O)N[C@@H](Cc4ccccc4)C(=O)N[C@@H](Cc4csc5ccccc45)C(=O)N[C@@H](CC(C)C)C(N)=O)NC(=O)[C@H](CCC(N)=O)NC(=O)[C@H](Cc4ccccc4)NC(=O)[C@H](C)NC(=O)[C@H](C)NC(=O)[C@H](CCC(=O)O)NC(=O)[C@H](CC(=O)O)NC3=O)NC1=O)CCCN2C(C)=O (stereo partly drawn) [I-634] | Solubility | 49 |

As a next step, examine the compound that follows.
Value lookup for Solubility; key = CC(=O)N1CCC[C@]12CC=CCCCC1(CCCC=CCCCOC(=O)N3CC[C@@](C(=O)N[C@@H](Cc4ccccc4Cl)C(=O)N[C@@H](Cc4csc5ccccc45)C(=O)N[C@@H](CO)C(N)=O)(C3)NC(=O)[C@H]([C@@H](C)O)NC(=O)[C@H](Cc3ccccc3)NC(=O)[C@H](CC(C)C)NC(=O)[C@H](C)NC(=O)[C@H](CC(=O)O)NC(=O)[C@H](CC(=O)O)NC1=O)NC(=O)[C@H](Cc1ccccc1)NC(=O)[C@H](CC(=O)O)NC2=O (stereo partly drawn) [I-1157]
15

###

- test_description: CHI Log D procedure
- Type: physicochemical
- measurement_parameters: pH 7.4, CHI Log D
Starred links: 1 amine or outer side, 2 acyl side, 3 side chain; linkers in the order of their positions; H or OH if unused. Non-standard residues stand in square brackets, D forms with d. Residues, ends and D or L forms follow the SMILES beside them. X1 = C=CCOC(=O)N1CC[C@@](N[*:1])(C(=O)[*:2])C1; R8 = C=CCCCCCC[C@@](C)(N)C(=O)O
attribute_measured: chromatographic logD
Would you mind answering with just the numeric figure?

| compound | chromatographic logD |
| --- | --- |
| CC(=O)N1CCC[C@]12CC=CCCCC1(CCCC=CCCCCCC[C@@](C)(C(=O)N[C@@H](Cc3ccccc3)C(=O)N[C@@H](Cc3ccc4ccccc4c3)C(=O)N[C@@H](CCC(N)=O)C(N)=O)NC(=O)[C@H](C(C)C)NC(=O)[C@H](Cc3ccc(F)c(F)c3)NC(=O)[C@H](C)NC(=O)[C@H](C)NC(=O)[C@H](CCC(=O)O)NC(=O)[C@H](CC(=O)O)NC1=O)NC(=O)[C@H](C)NC(=O)[C@H](CC(=O)O)NC2=O (stereo partly drawn) | 2.27 |
| CC(=O)N1CCC[C@]12CC=CCCCC1(CCCC=CCCCOC(=O)N3CC[C@@](C(=O)N[C@@H](Cc4ccccc4Cl)C(=O)N[C@@H](Cc4csc5ccccc45)C(=O)N[C@@H](CCC(N)=O)C(N)=O)(C3)NC(=O)[C@H](CC(C)C)NC(=O)[C@H](Cc3cccc(C(F)(F)F)c3)NC(=O)[C@H](C)NC(=O)[C@H](C)NC(=O)[C@H](CC(=O)O)NC(=O)[C@H](CC(=O)O)NC1=O)NC(=O)[C@H](CC(C)(C)C)NC(=O)[C@H](CC(=O)O)NC2=O (stereo partly drawn) | 2.41 |
| C#CCOCCC(=O)NCCCC[C@H](NC(=O)[C@H](CCC(N)=O)NC(=O)[C@H](Cc1csc2ccccc12)NC(=O)[C@H](Cc1ccsc1)NC(=O)[C@]12CCN(C1)C(=O)OCCCC=CCCCC1(CCCC=CC[C@]3(CCCN3C(C)=O)C(=O)N[C@@H](CC(=O)O)C(=O)N[C@@H](CC(C)(C)C)C(=O)N1)C(=O)N[C@@H](CC(=O)O)C(=O)N[C@@H](CC(=O)O)C(=O)N[C@@H](C)C(=O)N[C@@H](C)C(=O)N[C@@H](Cc1ccccc1)C(=O)N[C@@H](CC(N)=O)C(=O)N2)C(N)=O (stereo partly drawn) | 1.93 |
| CC(=O)N1CCC[C@]12CC=CCCCC1(CCCC=CCCCCCC[C@@](C)(C(=O)N[C@@H](Cc3ccccc3Cl)C(=O)N[C@@H](Cc3csc4ccccc34)C(=O)N[C@H](C(N)=O)[C@@H](C)O)NC(=O)[C@H]([C@@H](C)O)NC(=O)[C@H](Cc3ccccc3)NC(=O)[C@H](C)NC(=O)[C@H](C)NC(=O)[C@H](CCC(=O)O)NC(=O)[C@H](CC(=O)O)NC1=O)NC(=O)[C@H](CC(C)(C)C)NC(=O)[C@H](CC(=O)O)NC2=O (stereo partly drawn) | 3.04 |
| CC(=O)N1CCC[C@]12CC=CCCCC1(CCCC=CCCCCCC[C@@](C)(C(=O)N[C@@H](Cc3ccccc3)C(=O)N[C@@H](Cc3csc4ccccc34)C(=O)N[C@@H](CCC(N)=O)C(N)=O)NC(=O)[C@H](CC(N)=O)NC(=O)[C@H](Cc3ccccc3)NC(=O)[C@H](C)NC(=O)[C@H](C)NC(=O)[C@H](CCC(=O)O)NC(=O)[C@H](CC(=O)O)NC1=O)NC(=O)[C@H](CC(C)(C)C)NC(=O)[C@H](CC(=O)O)NC2=O (stereo partly drawn) | 2.45 |

# query: chromatographic logD of entry CC[C@H](C)[C@@H]1NC(=O)[C@H](CC(=O)O)NC(=O)[C@]2(CC=CCCCC3(CCCC=CCCCCCC[C@@](C)(C(=O)N[C@@H](CC(=O)O)C(=O)N[C@@H](Cc4csc5ccccc45)C(=O)N[C@@H](CCC(N)=O)C(N)=O)NC(=O)[C@H](CCC(N)=O)NC(=O)[C@H](Cc4ccccc4)NC(=O)[C@H](C)NC(=O)[C@H](C)NC(=O)[C@H](CCC(=O)O)NC(=O)[C@H](Cc4ccccc4)NC3=O)NC1=O)CCCN2C(C)=O (stereo partly drawn)
2.15

Query C=CCCCCCC[C@@](C)(NC(=O)[C@H](C)NC(=O)[C@H](CC(=O)O)NC(=O)[C@H](Cc1ccccc1)NC(C)=O)C(=O)N[C@@H](CC(=O)O)C(=O)N[C@@H](CC(=O)O)C(=O)N[C@@H](C)C(=O)N[C@@H](C)C(=O)N[C@@H](Cc1ccccc1)C(=O)N[C@@H](CCC(N)=O)C(=O)N[C@@]1(C(=O)N[C@@H](Cc2ccccc2)C(=O)N[C@@H](Cc2c[nH]c3ccccc23)C(=O)N[C@@H](CCC(N)=O)C(N)=O)CCN(C(=O)OCC=C)C1 [I-579] (Ac-FDA[R8]DDAAFQ[X1]FWQ-NH2) next
1.51

Lookup CC(=O)N1CCC[C@]12CC=CCCCC1(CCCC=CCCCOC(=O)N3CC[C@@](C(=O)N[C@@H](Cc4ccccc4Cl)C(=O)N[C@@H](Cc4csc5ccccc45)C(=O)N[C@@H](CCC(N)=O)C(N)=O)(C3)NC(=O)[C@H](CO)NC(=O)[C@H](Cc3ccccc3)NC(=O)[C@H](C)NC(=O)[C@H](C)NC(=O)[C@H](CC(=O)O)NC(=O)[C@H](CC(=O)O)NC1=O)NC(=O)[C@H](CC1CCCCC1)NC(=O)[C@H](CC(=O)O)NC2=O (stereo partly drawn)
2.32

Would you kindly repeat that for CC(=O)N[C@@H](Cc1ccccc1)C(=O)N[C@@H](CC(=O)O)C(=O)N[C@@H](C)C(=O)N[C@]1(C)CCCCCCC=CCOC(=O)N2CC[C@@](C(=O)N[C@@H](CC3CCCC3)C(=O)N[C@@H](Cc3c[nH]c4ccccc34)C(=O)N[C@@H](CCC(N)=O)C(N)=O)(C2)NC(=O)[C@H](C(C)C)NC(=O)[C@H](Cc2ccccc2)NC(=O)[C@H](C)NC(=O)[C@H](C)NC(=O)[C@H](CC(=O)O)NC(=O)[C@H](CC(=O)O)NC1=O (single isomer, unassigned) ?
1.32
